Data credit: patent US20200216522A1

- Experimental system: T1, full-length human Tau (Tau441; 2N4R), recombinant (human, UniProt P10636 1-758)
- T1 construct: made in E. coli, His6-Smt3 tag removed; biotinylated through amines for Octet and phage work; also called r-Tau; recombinant Tau
- T1 sequence (P10636 other isoform, or with tags, fused parts or gaps limits assumed): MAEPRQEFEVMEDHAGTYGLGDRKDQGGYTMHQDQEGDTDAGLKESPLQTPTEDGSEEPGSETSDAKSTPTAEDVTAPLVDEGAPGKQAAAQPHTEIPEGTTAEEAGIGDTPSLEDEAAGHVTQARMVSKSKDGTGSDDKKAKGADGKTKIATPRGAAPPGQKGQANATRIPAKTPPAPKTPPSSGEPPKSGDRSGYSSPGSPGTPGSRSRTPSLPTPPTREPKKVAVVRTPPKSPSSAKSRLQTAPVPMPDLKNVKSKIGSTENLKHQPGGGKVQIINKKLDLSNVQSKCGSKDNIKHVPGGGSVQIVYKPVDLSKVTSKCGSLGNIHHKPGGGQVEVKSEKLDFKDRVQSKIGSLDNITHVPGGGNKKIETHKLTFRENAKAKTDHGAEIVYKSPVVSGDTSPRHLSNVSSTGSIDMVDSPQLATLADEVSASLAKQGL
- Assay notes: SPR Biacore
Measured parameter: kon (M⁻¹ s⁻¹)
Numbers only here, please. The scale is M⁻¹ s⁻¹.

For the binder shown here, hu1C7.v2 (S49A) (antibody, V domains shown) VH: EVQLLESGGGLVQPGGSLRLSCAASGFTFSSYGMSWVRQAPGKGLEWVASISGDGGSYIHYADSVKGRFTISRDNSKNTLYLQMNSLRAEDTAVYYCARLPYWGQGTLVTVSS VL: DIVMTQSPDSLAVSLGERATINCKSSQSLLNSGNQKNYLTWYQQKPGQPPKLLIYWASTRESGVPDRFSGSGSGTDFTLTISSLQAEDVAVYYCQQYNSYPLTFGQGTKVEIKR , give the reported kon.
585000

Please do the same for Clone with H1_2-3 (antibody, V domains shown, based on hu1C7.v2) VH: EVQLLESGGGLVQPGGSLRLSCAASGFTFSQVGTSWVRQAPGKGLEWVASISGDGGSYIHYADSVKGRFTISRDNSKNTLYLQMNSLRAEDTAVYYCARLPYWGQGTLVTVSS VL: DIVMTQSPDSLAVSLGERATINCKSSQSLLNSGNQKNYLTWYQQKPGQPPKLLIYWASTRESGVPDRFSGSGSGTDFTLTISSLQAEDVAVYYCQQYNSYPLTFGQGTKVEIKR as well.
197000
